Experiment: Molecular charge and RP-HPLC hydrophobicity of polymers
Format: physicochemical
Settings: HPLC-RP gradient mobile phase
Measured Endpoint: ACN (%) (percent acetonitrile at elution, estimated hydrophobicity)
Quote the value and follow it with the unit of measurement.

# annotated cases, reported ACN (%) (percent acetonitrile at elution, estimated hydrophobicity) shown
>>> endpoint_value("CCCCCCCCCCCC(=O)NC(CCCCN)C(=O)NCCCCCCCC(=O)NC(CCCCN)C(=O)NCCCCCCCC(=O)NC(CCCCN)C(=O)NCCCCCCCC(=O)NC(CCCCN)C(=O)NCCCCCCCC(=O)NC(CCCCN)C(=O)NCCCCCCCC(=O)NC(CCCCN)C(=O)NCCCCCCCC(=O)NC(CCCCN)C(=O)NCCCCCCCC(=O)NC(CCCCN)C(N)=O (stereo not drawn) [C12K-7α8, C12K(NC8K)7NH2]")
"47.5%"
>>> endpoint_value("CCCCCCCCCCCC(=O)NC(CCCCN)C(=O)NCCCCCCCC(=O)NC(CCCCN)C(=O)NCCCCCCCC(=O)NC(CCCCN)C(=O)NCCCCCCCC(=O)NC(CCCCN)C(=O)NCCCCCCCC(=O)NC(CCCCN)C(=O)NCCCCCCCC(=O)NC(CCCCN)C(=O)NCCCCCCCC(=O)NC(CCCCN)C(=O)NCCCCCCCC(=O)NC(CCCCN)C(=O)NCCCCCCCC(=O)NC(CCCCN)C(=O)NCCCCCCCC(=O)NC(CCCCN)C(N)=O (stereo not drawn) [C12K-9α8, C12K(NC8K)9NH2]")
"48.4%"

Now examine the next entry.
Returns the measured ACN (%) (percent acetonitrile at elution, estimated hydrophobicity) for the input molecule. Input: CCCCCCCCCCCC(=O)NC(CCCCN)C(=O)NCCCCCCCC(=O)NC(CCCCN)C(=O)NCCCCCCCC(=O)NC(CCCCN)C(=O)NCCCCCCCC(=O)NC(CCCCN)C(=O)NCCCCCCCC(=O)NC(CCCCN)C(=O)NCCCCCCCC(=O)NC(CCCCN)C(=O)NCCCCCCCC(=O)NC(CCCCN)C(=O)NCCCCCCCC(=O)NC(CCCCN)C(=O)NCCCCCCCC(=O)NC(CCCCN)C(N)=O (stereo not drawn) [C12K-8α8, C12K(NC8K)8NH2] 48.5%

---

Assay: Cochleate formation by light microscopy
Format: physicochemical
Set-up: key: or above (E!); excellent (E); good (G); poor (P); none (N)
Conditions: DPPE:TOCL 75:25; 1:10 lipid to polymer ratio
Measured Endpoint: Cochleate formation

>>> endpoint_value("CCCCCCCCCCCC(=O)NC(CCCCN)C(=O)NCCCCCCCC(=O)NC(CCCCN)C(=O)NCCCCCCCC(=O)NC(CCCCN)C(=O)NCCCCCCCC(=O)NC(CCCCN)C(=O)NCCCCCCCC(=O)NC(CCCCN)C(=O)NCCCCCCCC(=O)NC(CCCCN)C(=O)NCCCCCCCC(=O)NC(CCCCN)C(=O)NCCCCCCCC(=O)NC(CCCCN)C(=O)NCCCCCCCC(=O)NC(CCCCN)C(=O)NCCCCCCCC(=O)NC(CCCCN)C(=O)NCCCCCCCC(=O)NC(CCCCN)C(=O)NCCCCCCCC(=O)NC(CCCCN)C(N)=O (stereo not drawn) [C12K-11α8, C12K(NC8K)11NH2]")
"P"
>>> endpoint_value("CCCCCCCCCCCC(=O)N[C@@H](CCCCN)C(=O)NCCCCCCCC(=O)N[C@@H](CCCCN)C(=O)NCCCCCCCC(=O)N[C@@H](CCCCN)C(=O)NCCCCCCCC(=O)N[C@@H](CCCCN)C(=O)NCCCCCCCC(=O)N[C@@H](CCCCN)C(=O)NCCCCCCCC(=O)N[C@@H](CCCCN)C(N)=O [C12K-5α8, C12K(NC8K)5NH2]")
"E"
>>> endpoint_value("CCCCCCCCCCCC(=O)NC(CCCCN)C(=O)NCCCCCCCC(=O)NC(CCCCN)C(=O)NCCCCCCCC(=O)NC(CCCCN)C(=O)NCCCCCCCC(=O)NC(CCCCN)C(=O)NCCCCCCCC(=O)NC(CCCCN)C(=O)NCCCCCCCC(=O)NC(CCCCN)C(=O)NCCCCCCCC(=O)NC(CCCCN)C(=O)NCCCCCCCC(=O)NC(CCCCN)C(=O)NCCCCCCCC(=O)NC(CCCCN)C(=O)NCCCCCCCC(=O)NC(CCCCN)C(N)=O (stereo not drawn) [C12K-9α8, C12K(NC8K)9NH2]")
"E"
>>> endpoint_value("CCCCCCCCCCCC(=O)NC(CCCCN)C(=O)NCCCCCCCC(=O)NC(CCCCN)C(=O)NCCCCCCCC(=O)NC(CCCCN)C(=O)NCCCCCCCC(=O)NC(CCCCN)C(=O)NCCCCCCCC(=O)NC(CCCCN)C(=O)NCCCCCCCC(=O)NC(CCCCN)C(=O)NCCCCCCCC(=O)NC(CCCCN)C(=O)NCCCCCCCC(=O)NC(CCCCN)C(N)=O (stereo not drawn) [C12K-7α8, C12K(NC8K)7NH2]")
"E"
